Provide the recorded SI IIIB (CC50/EC50 ratio) for the entries that follow.
# Test system: HIV-1 WT strain (IIIB)
# Assay method text: Anti-HIV activity against WT HIV-1
# Run conditions: WT HIV-1 IIIB

Query string: I have this molecule here, `Cc1cc(C)cc(S(=O)(=O)c2c(C(=O)NCCNS(=O)(=O)c3ccc(Br)cc3)[nH]c3ccc(Cl)cc23)c1` , and I need its recorded SI IIIB (CC50/EC50 ratio).
Result string: 964

Query string: I have this molecule here, `Cc1cc(C)cc(S(=O)(=O)c2c(C(=O)NCCCCNS(=O)(=O)c3ccc(Br)cc3)[nH]c3ccc(Cl)cc23)c1` , and I need its recorded SI IIIB (CC50/EC50 ratio).
Result string: 347

Query string: I have this molecule here, `Cc1cc(C)cc(S(=O)(=O)c2c(C(=O)NCCCCCNS(=O)(=O)c3ccc(C#N)cc3)[nH]c3ccc(Cl)cc23)c1` , and I need its recorded SI IIIB (CC50/EC50 ratio).
Result string: >6158

Query string: I have this molecule here, `Cc1cc(C)cc(S(=O)(=O)c2c(C(=O)NCCCCNS(=O)(=O)c3ccc(F)cc3)[nH]c3ccc(Cl)cc23)c1` , and I need its recorded SI IIIB (CC50/EC50 ratio).
Result string: >10,593

---

# System: HIV-1 mutant strain L100I
# Assay method text: microbe, parasite or virus in culture
# Type: cell-based
# Run conditions: Human immunodeficiency virus 1, MT4, read-out: EC50 L100I
Attribute measured: EC50 (nM)
Your answer should be a plain number; it is taken to be in nM.

Query string: I have this compound here, `Cc1cc(C)cc(S(=O)(=O)c2c(C(=O)NCCCCCNS(=O)(=O)c3ccc([N+](=O)[O-])cc3)[nH]c3ccc(Cl)cc23)c1` , and I need its recorded EC50.
Result string: 130

Query string: I have this compound here, `Cc1cc(C)cc(S(=O)(=O)c2c(C(=O)NCCNS(=O)(=O)c3ccccc3F)[nH]c3ccc(Cl)cc23)c1` , and I need its recorded EC50.
Result string: 250

Query string: I have this compound here, `Cc1cc(C)cc(S(=O)(=O)c2c(C(=O)NCCCCNS(=O)(=O)c3ccc(F)cc3)[nH]c3ccc(Cl)cc23)c1` , and I need its recorded EC50.
Result string: 56

Query string: I have this compound here, `Cc1cc(C)cc(S(=O)(=O)c2c(C(=O)NCCCCNS(=O)(=O)c3cccnc3)[nH]c3ccc(Cl)cc23)c1` , and I need its recorded EC50.
Result string: 17

---

# Tested on: HIV-1 mutant strain L100I
# Assay method text: microbe, parasite or virus in culture
# Format: cell-based
# Run conditions: Human immunodeficiency virus 1, MT4, read-out: EC50 L100I
Attribute measured: pEC50
Give only the number. pEC50 is defined as minus log10 of concentration in molar units.

Query string: I have this molecule here, `Cc1cc(C)cc(S(=O)(=O)c2c(C(=O)NCCNS(=O)(=O)c3ccc(-c4ccccc4)cc3)[nH]c3ccc(Cl)cc23)c1` , and I need its recorded pEC50.
Result string: 6.02

Query string: I have this molecule here, `COc1ccc(S(=O)(=O)NCCNC(=O)c2[nH]c3ccc(Cl)cc3c2S(=O)(=O)c2cc(C)cc(C)c2)cc1` , and I need its recorded pEC50.
Result string: 6.18

Query string: I have this molecule here, `COc1ccc(S(=O)(=O)NCCCNC(=O)c2[nH]c3ccc(Cl)cc3c2S(=O)(=O)c2cc(C)cc(C)c2)cc1` , and I need its recorded pEC50.
Result string: 6.49

Query string: I have this molecule here, `Cc1cc(C)cc(S(=O)(=O)c2c(C(=O)NCCNS(=O)(=O)c3cccc(F)c3)[nH]c3ccc(Cl)cc23)c1` , and I need its recorded pEC50.
Result string: 6.34

Query string: I have this molecule here, `COc1ccc(S(=O)(=O)NCCCCCNC(=O)c2[nH]c3ccc(Cl)cc3c2S(=O)(=O)c2cc(C)cc(C)c2)cc1` , and I need its recorded pEC50.
Result string: 7.03

Query string: I have this molecule here, Cc1cc(C#N)cc(C)c1Oc1nc(Nc2ccc(C#N)cc2)nc(N)c1Br [ETR, Etravirine, reference compound] , and I need its recorded pEC50.
Result string: 7.49

Query string: I have this molecule here, `Cc1cc(C)cc(S(=O)(=O)c2c(C(=O)NCCCNS(=O)(=O)c3ccccc3)[nH]c3ccc(Cl)cc23)c1` , and I need its recorded pEC50.
Result string: 6.74

Query string: I have this molecule here, O=C1Nc2ccc(Cl)cc2[C@@](C#CC2CC2)(C(F)(F)F)O1 [EFV, Efavirenz, reference compound] , and I need its recorded pEC50.
Result string: 7.49

Query string: I have this molecule here, `Cc1cc(C)cc(S(=O)(=O)c2c(C(=O)NCCCNS(=O)(=O)c3ccc(F)cc3)[nH]c3ccc(Cl)cc23)c1` , and I need its recorded pEC50.
Result string: 6.62

Query string: I have this molecule here, `Cc1cc(C)cc(S(=O)(=O)c2c(C(=O)NCCNS(=O)(=O)c3ccc(Cl)cc3)[nH]c3ccc(Cl)cc23)c1` , and I need its recorded pEC50.
Result string: 6.77

Query string: I have this molecule here, `Cc1cc(C)cc(S(=O)(=O)c2c(C(=O)NCCNS(=O)(=O)c3ccccc3)[nH]c3ccc(Cl)cc23)c1` , and I need its recorded pEC50.
Result string: 6.59

Query string: I have this molecule here, `COc1ccc(S(=O)(=O)NCCCCNC(=O)c2[nH]c3ccc(Cl)cc3c2S(=O)(=O)c2cc(C)cc(C)c2)cc1` , and I need its recorded pEC50.
Result string: 6.74

Query string: I have this molecule here, Cc1ccnc2c1NC(=O)c1cccnc1N2C1CC1 [NVP, Nevirapine, reference compound] , and I need its recorded pEC50.
Result string: 5.90

Query string: I have this molecule here, `Cc1cc(C)cc(S(=O)(=O)c2c(C(=O)NCCCNS(=O)(=O)c3ccc(Cl)cc3)[nH]c3ccc(Cl)cc23)c1` , and I need its recorded pEC50.
Result string: 7.01

Query string: I have this molecule here, `Cc1cc(C)cc(S(=O)(=O)c2c(C(=O)NCCCCNS(=O)(=O)c3cccs3)[nH]c3ccc(Cl)cc23)c1` , and I need its recorded pEC50.
Result string: 6.89

Measured values drawn from paper PMC10326263 for this set.
